TEST METHOD NOTES: Limit of compound solubility by 1H 1D NMR
Format: physicochemical
CONDITION: 1H 1D NMR spectroscopy
ASSAY READOUT: solubility (µM)

SUBSTANCE SMILES	RECORDED RESULT
CCN1C(=O)c2cc(NC(=O)OCC(C)C)ccc2Oc2ccccc21	8
